The reported numbers originate from paper PMC10108347.

Target: VHL30 (Homo sapiens, UniProt P40337)
Sequence (P40337 whole entry): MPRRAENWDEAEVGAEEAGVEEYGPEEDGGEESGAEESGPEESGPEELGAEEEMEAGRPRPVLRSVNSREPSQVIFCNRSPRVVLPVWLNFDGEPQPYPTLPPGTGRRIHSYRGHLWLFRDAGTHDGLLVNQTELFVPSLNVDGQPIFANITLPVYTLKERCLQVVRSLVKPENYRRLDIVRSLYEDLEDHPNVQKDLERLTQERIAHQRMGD
Test: Immunoblotting (western blot) quantification of VHL30 levels in MM.1S cells
Settings: MM1.S, 16 h, read-out: %remaining protein VHL30
Quick list: remaining activity at 0.1 µM per entry.

# smiles-text, result-unit, remaining activity at 0.1 µM
data = [
    ("CN[C@@H](C)C(=O)N[C@H](C(=O)N1C[C@@H](Oc2cccc(OCCCCCCCCOc3cc(-c4scnc4C)ccc3CNC(=O)[C@@H]3C[C@@H](O)CN3C(=O)[C@H](C(C)C)N3Cc4ccccc4C3=O)c2)C[C@H]1C(=O)N[C@@H]1CCCc2ccccc21)C1CCCCC1", "%", 53),
    ("CN[C@@H](C)C(=O)N[C@H](C(=O)N1C[C@@H](Oc2cccc(OCCCCCOc3cc(-c4scnc4C)ccc3CNC(=O)[C@@H]3C[C@@H](O)CN3C(=O)[C@H](C(C)C)N3Cc4ccccc4C3=O)c2)C[C@H]1C(=O)N[C@@H]1CCCc2ccccc21)C1CCCCC1", "%", 55),
]
